Test system: Bacillus thuringiensis
Assay: Antimicrobial activity Bacillus thuringiensis at 0.15 mg/mL after 24 hrs by agar diffusion technique
Format: functional
Settings: read-out: IZ

chem.smiles | zone of inhibition at 150 µg/mL [mm]
Cc1cc(C)c2c(n1)[nH]n1c(=N)c(C(=O)Nc3c(C)n(C)n(-c4ccccc4)c3=O)nnc21 | 13
Cc1c(NC(=O)c2sc(=S)n(-c3ccccc3)c2N)c(=O)n(-c2ccccc2)n1C | 12
Cc1cc(C)c2c(N/N=C(\C#N)C(=O)Nc3c(C)n(C)n(-c4ccccc4)c3=O)n[nH]c2n1 | 16
Cc1cc(C)n(-c2c(C)n(C)n(-c3ccccc3)c2=O)c(=O)c1C#N | 10
Cc1c(NC(=O)c2cc3ccccc3oc2=N)c(=O)n(-c2ccccc2)n1C | 24
Cc1cc(C)n2nc(Nc3ccccc3)c(C(=O)Nc3c(C)n(C)n(-c4ccccc4)c3=O)c2n1 | 21
Cc1c(-n2nnc3[nH]nc(Nc4ccccc4)c3c2=O)c(=O)n(-c2ccccc2)n1C | 22
Cc1c(-n2cnc3[nH]nc(Nc4ccccc4)c3c2=O)c(=O)n(-c2ccccc2)n1C | 28
Cc1cc(O)n2nc(Nc3ccccc3)c(C(=O)Nc3c(C)n(C)n(-c4ccccc4)c3=O)c2n1 | 20
